study_target: Gal(b1-4)GlcNAc(b1-3)[Fuc(a1-3)GlcNAc(b1-6)]Gal(b1-4)Glc
protocol_description: glycan array binding signal (z-score within array); higher = stronger binding
measurement_conditions: glycan notation: IUPAC condensed, linker removed
The full list was thinned out, with the strongest signals kept by preference.
test_readout: glycan array binding signal (z-score)

binder: ACA (Amaranthus caudatus) (protein) MAGLPVIMCLKSNNNQKYLRYQSDNIQQYGLLQFSADKILDPLAQFEVEPSKTYDGLVHIKSRYTNKYLVRWSPNHYWITASANEPDENKSNWACTLFKPLYVEEGNMKKVRLLHVQLGHYTQNYTVGGSFVSYLFAESSQIDTGSKDVFHVIDWKSIFQFPKRYVTFKGNNGKYLGVITINQLPCLQFGYDNLNDPKVAHEMFVTSNGTICIKSTYMNKFWRLSTDDWILVDGNDPRETNEAAALFRSDVHDFNVISLLNMQKTWFIKRFTSGKPGFINCMNAATQNVDETAILEIIELGSNN
test_readout: glycan array binding signal (z-score)
result_value: 0.71
--
binder: MGL1 (Mus musculus), P49300 (protein) MIYENLQNSRIEEKTQEPGKAPSQSFLWRILSWTHLLLFSLGLSLLLLVVVSVIGSQNSQLRRDLGTLRATLDNTTSKIKAEFQSLDSRADSFEKGISSLKVDVEDHRQELQAGRDLSQKVTSLESTVEKREQALKTDLSDLTDHVQQLRKDLKALTCQLANLKNNGSEVACCPLHWTEHEGSCYWFSESEKSWPEADKYCRLENSHLVVVNSLEEQNFLQNRLANVVSWIGLTDQNGPWRWVDGTDFEKGFKNWAPLQPDNWFGHGLGGGEDCAHITTGGPWNDDVCQRTFRWICEMKLAKES
test_readout: glycan array binding signal (z-score)
result_value: 4.54
